From: patent US20240199695A1

Measurement Target: T1, soluble form of sortilin (UniProt Q99523 78-755, limits assumed)
T1 construct: also called soluble sortilin; receptor sortilin
T1 sequence (looked up): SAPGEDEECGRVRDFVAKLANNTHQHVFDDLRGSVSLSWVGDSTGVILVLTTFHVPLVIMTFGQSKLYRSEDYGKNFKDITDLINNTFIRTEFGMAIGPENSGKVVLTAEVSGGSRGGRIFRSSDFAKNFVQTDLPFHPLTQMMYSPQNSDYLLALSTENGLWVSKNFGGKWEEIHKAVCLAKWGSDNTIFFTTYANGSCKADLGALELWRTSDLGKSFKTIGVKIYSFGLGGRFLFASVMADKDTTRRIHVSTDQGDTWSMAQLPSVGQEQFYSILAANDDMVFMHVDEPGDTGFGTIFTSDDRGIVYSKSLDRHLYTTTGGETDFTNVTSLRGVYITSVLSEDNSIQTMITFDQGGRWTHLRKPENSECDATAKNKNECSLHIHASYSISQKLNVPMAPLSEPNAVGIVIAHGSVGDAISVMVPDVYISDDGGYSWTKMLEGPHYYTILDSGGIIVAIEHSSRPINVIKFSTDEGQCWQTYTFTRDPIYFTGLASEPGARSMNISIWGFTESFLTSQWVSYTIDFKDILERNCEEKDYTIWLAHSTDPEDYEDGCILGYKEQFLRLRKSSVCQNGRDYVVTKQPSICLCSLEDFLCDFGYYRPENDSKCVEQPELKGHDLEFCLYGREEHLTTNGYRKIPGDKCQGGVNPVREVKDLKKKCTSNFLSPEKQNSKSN
Test: SPR; biotinylated KBP-103 on a streptavidin chip, soluble sortilin injected
Experimental: Biotinylated Katana peptide was immobilized on a streptavidin sensor chip. A. Soluble sortilin was then injected over the immobilized peptide. The surface plasmon resonance signal was then monitored over time. Surface plasmon resonance (SPR) was first used to investigate whether these peptides could be recognized by sortilin. […] Interactions between immobilized KBP-103 and the receptor sortilin was then monitored in real time. […]
No end group written: not given here. *: point of attachment. Biotin = O=C1N[C@H]2[C@H](CS[C@H]2CCCCC(=O)*)N1
Measured Metric: Kd (nM)
Supply the numeric figure in nM, leaving out any unit text.

The recorded Kd for IKLSGGVQAKAGVINMFKSESYK(Biotin) (Immobilised on a streptavidin sensor chip in the SPR assay; also called biotinylated-peptide; Katana peptide) [KBP-103: IKLSGGVQAKAGVINMFKSESYK(Biotin)] is 25.5
